# Experimental system: T1, Anti-PSMA Fab (SEQ ID NOs: 19, 20)
# T1 construct: also called 006 PSMA Fab
# Test name: phage binding ELISA; clonal phage supernatant on biotinylated PSMA Fab captured on neutravidin plate, wells pre-incubated with PSMA antigen (competitor: PSMA); anti-M13-HRP detection
Known Anti-PSMA Fab signal in the presence of PSMA of a selection of binders
Respond with the number and no other words.

Some solved entries appear below for comparison.
VEKLCRPSWMCEHM [Phage-1939]	0.0564
DGKWCIPPWMCQST [Phage-1944]	0.077
MEKWCIPSWMCDVN [Phage-1938]	0.0785

Pending binder:
Incoming: Respond only with Anti-PSMA Fab signal in the presence of PSMA recorded for WPKWCTPPWMCFQD [Phage-1936]
Outgoing: 0.148
